Listed here are compounds together with their documented z-score.
assay: DUSP6 inhibitors restoring Erk phosphorylation by chemical complementation, primary imaging in DUSP6-transfected HeLa (AID 609); conditions: HeLa MKP-3 transfected, phospho-Erk imaging KS statistic; measured here: nuclear c-Myc green intensity z-score; at 10 µM; cells stimulated with TPA for 15 min

[
  {
    "compound": "COC(=O)c1ccc(C2/C(=C(\\O)c3ccc4c(c3)OCCO4)C(=O)C(=O)N2CCCN(C)C)cc1 (stereo unspecified)",
    "z-score": -0.278
  },
  {
    "compound": "CN=C(c1ccco1)n1c(=S)nc(-c2ccco2)n(C)c1=S",
    "z-score": -0.895
  },
  {
    "compound": "Cc1csc(SCCn2c(Br)nc3c2c(=O)[nH]c(=O)n3C)n1",
    "z-score": 0.745
  },
  {
    "compound": "N#Cc1cc(Oc2cccc3cccnc23)c(-n2nnc3ccccc32)cc1C#N",
    "z-score": -0.877
  },
  {
    "compound": "Cc1ccc(C(=O)NCCCNCCCNC(=O)c2ccc(C)nc2)cn1",
    "z-score": -0.364
  }
]

Which value of z-score has been reported for CCOC(=O)c1c(C)n(C)c2ccc(OC)c(NC(=O)CN3CCC4(CC3)OCCO4)c12 in the records?
0.471

Need z-score of COc1ccc2c(c1)c(C(=O)CN1CCOCC1)c(C)n2C , thanks.
-0.95

Entry Cc1ccc(-n2ncc3c(NCc4cccnc4)ncnc32)c(C)c1 has what z-score?
0.459

Tell me the measured z-score of CCOC(=O)C(C)Sc1nc(-c2cccs2)ccc1C#N (stereo unspecified) , please.
0.836

Using the record for CC1(C)C2CCC1(C)C(OC(=O)CC(=O)O)C2 (stereo unspecified) , report its z-score.
-0.605

What measured z-score goes with Cn1c(=O)[nH]c(=O)c2c1nc(N1CCN(c3cccc(Cl)c3)CC1)n2CCCc1ccccc1 ?
-1.24

Give the measured z-score of COCCNC(=O)C(C#N)c1nc2ccccc2nc1N1CCN(Cc2ccc3c(c2)OCO3)CC1 (stereo unspecified) .
1.08

If you can, please state the reported z-score value of Cc1nn(CCO)c2c1C(=O)CCC2 .
-0.18

Suppose we examine the compound CC(C(=O)N(C)C)N(C#N)c1nc(N(C)C)nc(N(C)C)n1 (stereo unspecified) ; what z-score value has been reported?
1.62

Using the record for CC1(C(=O)CSc2nc3ccccc3[nH]2)CCC(=O)O1 (stereo unspecified) , report its z-score.
-0.005

Value lookup for z-score; key = CCCCc1[nH]c(=O)c(C#N)c2c1CSC(C)(C)C2
0.642

Item O=C(COc1ccc(-c2nnc(N3CCCCC3)c3ccccc23)cc1)N1CCCCC1 has what recorded z-score?
-0.404

Quick check: z-score of CC(C)(C)NC(=O)/C=N/O ?
-0.26

// lookup z-score for CCC(NC(=O)NC1=NCCS1)(C(F)(F)F)C(F)(F)F
-0.646

What does the record list as z-score for O=C(c1cc(N2CCCCC2)nc2ccccc12)N1CCOCC1 ?
2.14

Given Cn1c(OCc2cccnc2)nc2c1c(=O)n(Cc1ccc(Br)cc1)c(=O)n2C , state its recorded z-score.
-0.35

Could you share which z-score value was measured for NC(=O)C1CCN(C2OC(=O)c3ccccc32)CC1 (stereo unspecified) ?
0.288

Find the recorded z-score belonging to O=C(CSc1nc2ccccc2s1)Nn1cnnc1 and report it.
-1.79

Please give the measured z-score for this compound: CCOc1ccc(NC(=O)CSC2=C(C#N)C(c3ccc4c(c3)OCO4)CC(=O)N2)cc1 (stereo unspecified)
-0.0485

GET /values?readout=z-score&item= CCOC(=O)C1=C(N)N2C(=O)CSC2=C(C(=O)OC)C1
1.6

Which z-score is reported for this compound? CC1(C)CCN(Cc2ccccc2)C1CC#N (stereo unspecified)
-0.992

Value lookup for z-score; key = CN(C)c1cccc2c(S(=O)(=O)N3CCOCC3)cccc12
1.31

Any idea what its z-score is? The compound is CC(C)c1nc(NCCN2CCOCC2)c(C#N)c2c1COC(C)(C)C2
-0.209

I am curious: what z-score value has been reported for COc1ccc2c(c1OC)C(=O)OC2c1c(O)nc(SC)n(-c2ccccc2)c1=O (stereo unspecified) ?
1.53

====

test: inhibitors of mutant huntingtin aggregation, primary screen, imaging, exon1htt(103Q)mCFP cells, high-content imaging (AID 483); settings: exon1htt(103Q)mCFP cell line, aggregate imaging, at 2 µM; stronger effect = higher value;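 further: compound exposure lasted 3 days before fixation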
reported-endpoint: inhibition of aggregation (%)
Report the value in % with no unit label.

[
  {
    "molecule": "Cn1c(=O)c2c(ncn2CC(=O)OCC(=O)NC2CCCc3ccccc32)n(C)c1=O (configuration not stated)",
    "reported-endpoint": "inhibition of aggregation",
    "obs-value": 23.7
  },
  {
    "molecule": "Cc1c(C(=O)Nc2ccncc2)oc2c1C(=O)CC(C)(C)C2",
    "reported-endpoint": "inhibition of aggregation",
    "obs-value": 18.9
  },
  {
    "molecule": "O=C(CSc1nccn1-c1cccc(Cl)c1)NC1CCCC1",
    "reported-endpoint": "inhibition of aggregation",
    "obs-value": -1.4
  },
  {
    "molecule": "Cc1nnc(SCC(=O)N2CC(=O)Nc3ccccc32)n1-c1ccccc1",
    "reported-endpoint": "inhibition of aggregation",
    "obs-value": -14.7
  },
  {
    "molecule": "Cc1occc1C(=O)Nc1nnc(C2CCCCC2)s1",
    "reported-endpoint": "inhibition of aggregation",
    "obs-value": -8.9
  }
]

Item CCOc1cc(S(=O)(=O)Nc2ccccn2)ccc1F has what recorded inhibition of aggregation?
0.1

Quick one: inhibition of aggregation of Cc1ccc(NC(=O)C2CCCN(S(=O)(=O)c3cnc[nH]3)C2)c(Br)c1 (configuration not stated) ?
-33.6

Give the measured inhibition of aggregation of CCOC(=O)CNC(=O)CSc1nc(N)cc(N)n1 .
-0.1

What value of measured inhibition of aggregation is listed for CCOC(=O)C1=C(c2ccccc2)N2CCN=C2S1 ?
18.9

Consider the molecule shown here: COc1cc2c(cc1NC(=O)COC(=O)Cn1cnc3ccccc31)oc1ccccc12 What is its recorded inhibition of aggregation?
-10.9

Any idea what its inhibition of aggregation is? The molecule is COc1cc(NC(=O)c2cccs2)cc(OC)c1
33

Data request, read-out inhibition of aggregation, for Cc1noc(C)c1COC(=O)c1ccccc1Oc1ccccc1
-12

====

test: DUSP6 inhibitors restoring Erk phosphorylation by chemical complementation, primary imaging in DUSP6-transfected HeLa (AID 609); settings: HeLa MKP-3 transfected, phospho-Erk imaging KS statistic; measured here: nuclear pErk red intensity z-score; at 10 µM; stronger effect = higher value; cells stimulated with TPA for 15 min
Decision: z-score >= -0.2 yields y, all other cases yield n.

Consider the following illustrative entries.
[
  {
    "compound": "CCCOc1cccc(C2/C(=C(/O)c3ccc(F)cc3)C(=O)C(=O)N2CCN(C)C)c1 (configuration not stated)",
    "assigned-label": "n"
  },
  {
    "compound": "COC(=O)c1ccc(Cn2c(O)c(N=O)c3ccccc32)o1",
    "assigned-label": "n"
  },
  {
    "compound": "CC(C)Cc1nc(N2CCOCC2)c(C#N)c2c1COC(C)(C)C2",
    "assigned-label": "y"
  },
  {
    "compound": "N#C/C(=C\\c1c(N2CCC(C(N)=O)CC2)nc2ccccn2c1=O)S(=O)(=O)c1ccccc1",
    "assigned-label": "n"
  }
]

For this compound, is measured z-score -0.2 or higher? Cc1cc(O)ccc1-c1cnc2ccccc2n1
y

Form field: z-score at least -0.2? Entry: CC1(C)Cc2c(c(-c3ccco3)[nH]c(=O)c2C#N)CS1
y

Could you tell me if the measured z-score of COn1c(SC2CCCCC2)nc2ccccc2c1=O reaches -0.2 or more?
n

I'd appreciate it if you could say whether CC(=O)NCC(=O)OCN1C(=O)c2ccccc2C1=O has z-score at least equal to -0.2.
n

Determine whether this compound has z-score no lower than -0.2: COc1cc2c(cc1OC)C1(CCCC1)C(N)=C2C#N
y

Is z-score at least -0.2? Consider COC(=O)c1ccc(C2/C(=C(\O)c3cccc(OC)c3)C(=O)C(=O)N2CCCN2CCOCC2)cc1 (configuration not stated)
n

Given the entry Cc1cc(C)n(C2CCCCC2OC(=O)c2ccccc2)n1 (configuration not stated) , answer whether its z-score meets or surpasses -0.2.
n

Could you verify whether the entry CCn1c(SCC(=O)Nc2ccccc2C(=O)OC)nnc1-c1ccc(N)cc1 shows z-score of no less than -0.2?
n

Please tell me: is the compound COc1ccc(N2CCN(c3oc(COc4ccc(Cl)cc4)nc3C#N)CC2)cc1 at or over -0.2 in terms of z-score?
y

Kindly determine if z-score recorded for CCOC(=O)C1=Nc2ccccc2C1=[N+]=[N-] is above or exactly -0.2.
y

Please check the record Cn1cccc1/C=N/n1cnnc1 and state if its z-score is at or above -0.2.
n

Test whether the compound Cc1cc(C)c(C#N)c(OCC(=O)c2ccccc2)n1 records z-score of -0.2 or higher.
y

Test whether the compound COc1ccc(/C(O)=C2\C(=O)C(=O)N(CCN(C)C)C2c2cccc(OC)c2OC)cc1Cl (configuration not stated) records z-score of -0.2 or higher.
n

Hello, I need to know if Cc1cc(=O)[nH]c(COc2ccccc2)n1 has measured z-score not below -0.2. Thanks!
y

z-score >= -0.2 for CCN(CC)c1ccc(C2Nc3cccc4cccc(c34)N2)c(O)c1 ?
n

Record COC(=O)C(NC(=O)c1ccccc1)(Nc1nc(C)cs1)C(F)(F)F (configuration not stated) ; criterion: z-score no lower than -0.2. Met?
y

Hello, I need to know if CCOC(=O)CNC(=O)CNC(=O)c1ccc(OC)cc1 has measured z-score not below -0.2. Thanks!
y

Could you verify whether the entry N#Cc1nc(COc2ccc(Br)cc2)oc1NCCN1CCOCC1 shows z-score of no less than -0.2?
y

For this compound, is measured z-score -0.2 or higher? CCOCCn1c(SC)nc2c1c(=O)[nH]c(=O)n2C
y

Threshold query (z-score >= -0.2) on Cc1ccc(N(CC(O)CN(C)C)S(=O)(=O)c2ccccc2)cc1 (configuration not stated)
y

# check: z-score of C=CCN(C(=O)CCC(=O)O)C1CC(=O)N(c2ccc(OC)cc2)C1=O (configuration not stated) is greater than or equal to -0.2
n

// inclusive: z-score at least -0.2? input: COC(=O)c1ccc(C2/C(=C(\O)c3cccc(OC)c3)C(=O)C(=O)N2CCCN(C)C)cc1 (configuration not stated)
n
